Biological target: SCRIB PDZ1 (SCRIB-1) (Homo sapiens, UniProt Q14160)
Residues, ends and D or L forms follow the SMILES beside them.
Listed below: pKi values for each entry.
FYI, pKi means -log10 of a concentration in mol per litre.

// below: answered compounds
compound="CC(C)C[C@H](NC(=O)[C@H](CCCNC(=N)N)NC(=O)[C@@H](NC(=O)[C@H](CC(=O)O)NC(=O)[C@H](CCC(N)=O)NC(=O)[C@H](CCCNC(=N)N)NC(=O)[C@@H](NC(=O)[C@H](CCCNC(=N)N)NC(=O)[C@H](CO)NC(=O)[C@@H](N)CO)[C@@H](C)O)[C@@H](C)O)C(=O)O [CFTRP5R] (H-SSRTRQDTRL-OH)" assay_metric=pKi value_measured=4.30
compound="CC(C)C[C@H](NC(=O)[C@H](CCC(N)=O)NC(=O)[C@@H](NC(=O)[C@H](CC(=O)O)NC(=O)[C@H](CCC(N)=O)NC(=O)[C@@H](NC(=O)[C@@H](NC(=O)[C@H](CCCNC(=N)N)NC(=O)[C@H](CO)NC(=O)[C@@H](N)CO)[C@@H](C)O)C(C)C)[C@@H](C)O)C(=O)O [CFTRP1Q] (H-SSRTVQDTQL-OH)" assay_metric=pKi value_measured=3.82
compound="CC(C)C[C@H](NC(=O)[C@H](CCCNC(=N)N)NC(=O)[C@@H](NC(=O)[C@H](CCC(=O)O)NC(=O)[C@H](CCCNC(=N)N)NC(=O)[C@H](CCCNC(=N)N)NC(=O)[C@@H](NC(=O)[C@H](CCCNC(=N)N)NC(=O)[C@H](CO)NC(=O)[C@@H](N)CO)[C@@H](C)O)[C@@H](C)O)C(=O)O [HPVP1R] (H-SSRTRRETRL-OH)" assay_metric=pKi value_measured=4.89
compound="CC(C)C[C@H](NC(=O)[C@H](CCC(N)=O)NC(=O)[C@@H](NC(=O)[C@H](CCC(=O)O)NC(=O)[C@H](CCCNC(=N)N)NC(=O)[C@H](CCCNC(=N)N)NC(=O)[C@@H](NC(=O)[C@H](CCCNC(=N)N)NC(=O)[C@H](CO)NC(=O)[C@@H](N)CO)[C@@H](C)O)[C@@H](C)O)C(=O)O [HPV16 E6]" assay_metric=pKi value_measured=4.70
compound="CC(C)C[C@H](NC(=O)[C@H](CCC(N)=O)NC(=O)[C@@H](NC(=O)[C@H](CCC(=O)O)NC(=O)[C@H](CCC(N)=O)NC(=O)[C@H](CCCNC(=N)N)NC(=O)[C@@H](NC(=O)[C@H](CCCNC(=N)N)NC(=O)[C@H](CO)NC(=O)[C@@H](N)CO)[C@@H](C)O)[C@@H](C)O)C(=O)O [HPVP4Q] (H-SSRTRQETQL-OH)" assay_metric=pKi value_measured=4.89
compound="CC(C)C[C@H](NC(=O)[C@H](CCCNC(=N)N)NC(=O)[C@@H](NC(=O)[C@H](CC(=O)O)NC(=O)[C@H](CCCNC(=N)N)NC(=O)[C@@H](NC(=O)[C@@H](NC(=O)[C@H](CCCNC(=N)N)NC(=O)[C@H](CO)NC(=O)[C@@H](N)CO)[C@@H](C)O)C(C)C)[C@@H](C)O)C(=O)O [CFTRP4R] (H-SSRTVRDTRL-OH)" assay_metric=pKi value_measured=3.43

Attention now shifts to the item below.
Log: SCRIB PDZ1 (SCRIB-1) (Homo sapiens, UniProt Q14160), compound CC(C)C[C@H](NC(=O)[C@H](CCC(N)=O)NC(=O)[C@@H](NC(=O)[C@H](CCC(=O)O)NC(=O)[C@H](CCCNC(=N)N)NC(=O)[C@@H](NC(=O)[C@@H](NC(=O)[C@H](CCCNC(=N)N)NC(=O)[C@H](CO)NC(=O)[C@@H](N)CO)[C@@H](C)O)C(C)C)[C@@H](C)O)C(=O)O [HPVP5V] (H-SSRTVRETQL-OH) , pKi = 5.35

----------
Biological target: NHERF1 PDZ1 (N1P1) (Homo sapiens, UniProt O14745)
Sequence (O14745 1-139): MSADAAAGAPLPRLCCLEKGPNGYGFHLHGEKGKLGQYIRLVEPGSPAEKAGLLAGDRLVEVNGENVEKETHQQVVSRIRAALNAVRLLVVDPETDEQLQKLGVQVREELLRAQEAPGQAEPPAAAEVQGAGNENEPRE
Residues, ends and D or L forms follow the SMILES beside them.
Assay Metric: Ki (µM)
State the answer as a number, implicitly in µM.

// below: answered compounds
compound="CC(C)C[C@H](NC(=O)[C@H](CCCNC(=N)N)NC(=O)[C@@H](NC(=O)[C@H](CCC(=O)O)NC(=O)[C@H](CCCNC(=N)N)NC(=O)[C@H](CCCNC(=N)N)NC(=O)[C@@H](NC(=O)[C@H](CCCNC(=N)N)NC(=O)[C@H](CO)NC(=O)[C@@H](N)CO)[C@@H](C)O)[C@@H](C)O)C(=O)O [HPVP1R] (H-SSRTRRETRL-OH)" value_measured=8.8
compound=CC(C)C[C@H](NC(=O)[C@H](CCC(N)=O)NC(=O)[C@@H](NC(=O)[C@H](CCC(=O)O)NC(=O)[C@H](CCCNC(=N)N)NC(=O)[C@H](CCCNC(=N)N)NC(=O)[C@@H](NC(=O)[C@H](CCCNC(=N)N)NC(=O)[C@H](CO)NC(=O)[C@@H](N)CO)[C@@H](C)O)[C@@H](C)O)C(=O)O value_measured=100
compound="CC(C)C[C@H](NC(=O)[C@H](CCC(N)=O)NC(=O)[C@@H](NC(=O)[C@H](CCC(=O)O)NC(=O)[C@H](CCC(N)=O)NC(=O)[C@H](CCCNC(=N)N)NC(=O)[C@@H](NC(=O)[C@H](CCCNC(=N)N)NC(=O)[C@H](CO)NC(=O)[C@@H](N)CO)[C@@H](C)O)[C@@H](C)O)C(=O)O [HPVP4Q] (H-SSRTRQETQL-OH)" value_measured=21
compound="CC(C)C[C@H](NC(=O)[C@H](CCCNC(=N)N)NC(=O)[C@@H](NC(=O)[C@H](CC(=O)O)NC(=O)[C@H](CCCNC(=N)N)NC(=O)[C@@H](NC(=O)[C@@H](NC(=O)[C@H](CCCNC(=N)N)NC(=O)[C@H](CO)NC(=O)[C@@H](N)CO)[C@@H](C)O)C(C)C)[C@@H](C)O)C(=O)O [CFTRP4R] (H-SSRTVRDTRL-OH)" value_measured=6.9

The reported Ki of the compound CC(C)C[C@H](NC(=O)[C@H](CCCNC(=N)N)NC(=O)[C@@H](NC(=O)[C@H](CC(=O)O)NC(=O)[C@H](CCC(N)=O)NC(=O)[C@H](CCCNC(=N)N)NC(=O)[C@@H](NC(=O)[C@H](CCCNC(=N)N)NC(=O)[C@H](CO)NC(=O)[C@@H](N)CO)[C@@H](C)O)[C@@H](C)O)C(=O)O [CFTRP5R] (H-SSRTRQDTRL-OH) was 1.8

The reported Ki of the compound CC(C)C[C@H](NC(=O)[C@H](CCC(N)=O)NC(=O)[C@@H](NC(=O)[C@H](CCC(=O)O)NC(=O)[C@H](CCCNC(=N)N)NC(=O)[C@@H](NC(=O)[C@@H](NC(=O)[C@H](CCCNC(=N)N)NC(=O)[C@H](CO)NC(=O)[C@@H](N)CO)[C@@H](C)O)C(C)C)[C@@H](C)O)C(=O)O [HPVP5V] (H-SSRTVRETQL-OH) was 67

The reported Ki of the compound CC(C)C[C@H](NC(=O)[C@H](CCC(N)=O)NC(=O)[C@@H](NC(=O)[C@H](CC(=O)O)NC(=O)[C@H](CCC(N)=O)NC(=O)[C@@H](NC(=O)[C@@H](NC(=O)[C@H](CCCNC(=N)N)NC(=O)[C@H](CO)NC(=O)[C@@H](N)CO)[C@@H](C)O)C(C)C)[C@@H](C)O)C(=O)O [CFTRP1Q] (H-SSRTVQDTQL-OH) was 25

----------
Listed below: IC50 values for each entry.
Molecular target: PTPN3 PDZ (PTPN3) (Homo sapiens, UniProt P26045)
Sequence (P26045 505-597): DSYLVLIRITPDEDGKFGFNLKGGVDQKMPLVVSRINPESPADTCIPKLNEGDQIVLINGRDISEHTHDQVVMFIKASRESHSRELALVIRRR
Residues, ends and D or L forms follow the SMILES beside them.
State the answer as a number, implicitly in µM.

compound="CC(C)C[C@H](NC(=O)[C@H](CCCNC(=N)N)NC(=O)[C@@H](NC(=O)[C@H](CCC(=O)O)NC(=O)[C@H](CCCNC(=N)N)NC(=O)[C@H](CCCNC(=N)N)NC(=O)[C@@H](NC(=O)[C@H](CCCNC(=N)N)NC(=O)[C@H](CO)NC(=O)[C@@H](N)CO)[C@@H](C)O)[C@@H](C)O)C(=O)O [HPVP1R] (H-SSRTRRETRL-OH)" system_name="PTPN3 PDZ (PTPN3) (Homo sapiens, UniProt P26045)" assay_metric=IC50 units_label=µM value_measured=18
compound=CC(C)C[C@H](NC(=O)[C@H](CCC(N)=O)NC(=O)[C@@H](NC(=O)[C@H](CCC(=O)O)NC(=O)[C@H](CCCNC(=N)N)NC(=O)[C@H](CCCNC(=N)N)NC(=O)[C@@H](NC(=O)[C@H](CCCNC(=N)N)NC(=O)[C@H](CO)NC(=O)[C@@H](N)CO)[C@@H](C)O)[C@@H](C)O)C(=O)O system_name="PTPN3 PDZ (PTPN3) (Homo sapiens, UniProt P26045)" assay_metric=IC50 units_label=µM value_measured=10.1

Log: PTPN3 PDZ (PTPN3) (Homo sapiens, UniProt P26045), compound CC(C)C[C@H](NC(=O)[C@H](CCC(N)=O)NC(=O)[C@@H](NC(=O)[C@H](CCC(=O)O)NC(=O)[C@H](CCCNC(=N)N)NC(=O)[C@@H](NC(=O)[C@@H](NC(=O)[C@H](CCCNC(=N)N)NC(=O)[C@H](CO)NC(=O)[C@@H](N)CO)[C@@H](C)O)C(C)C)[C@@H](C)O)C(=O)O [HPVP5V] (H-SSRTVRETQL-OH) , IC50 = 3.4

Measured values drawn from paper PMC9881875 for this set.
